experimentalProtocol: activity coefficient (dimensionless); of the first substance listed, at infinite dilution; xn = mol fraction of the nth substance listed
conditionSummary: 358.15 K; 101 kPa; Liquid; Chromatography; x1 = 0
Response field label: string, one of 1 (yes) (activity coefficient strictly below 6) or 0 (no).

A selection of reference data follows.
In [3]: df
Out[3]:
                                   compound  grouplabel
0  Cc1cccc(C)c1 [1,3-dimethylbenzene] + CCCCCC[N+]1(C)CCCCC1.O=S(=O)([N-]S(=O)(=O)C(F)(F)F)C(F)(F)F     1 (yes)
1  CCCCCCCCC [nonane] + CCCCC[N+]1(C)CCCCC1.O=S(=O)([N-]S(=O)(=O)C(F)(F)F)C(F)(F)F      0 (no)
2  CO [methanol] + CCCCC[N+]1(C)CCCCC1.O=S(=O)([N-]S(=O)(=O)C(F)(F)F)C(F)(F)F     1 (yes)
3  C=CCCCCCCCC [1-decene] + CCCCCC[N+]1(C)CCCCC1.O=S(=O)([N-]S(=O)(=O)C(F)(F)F)C(F)(F)F      0 (no)
4  CCCCCO [pentan-1-ol] + CCCCC[N+]1(C)CCCCC1.O=S(=O)([N-]S(=O)(=O)C(F)(F)F)C(F)(F)F     1 (yes)

Regarding C1CCCC1 [cyclopentane] + CCCCC[N+]1(C)CCCCC1.O=S(=O)([N-]S(=O)(=O)C(F)(F)F)C(F)(F)F , kindly confirm whether its activity coefficient is beneath 6. 1 (yes)

Input C=CCCCCC [1-heptene] + CCCCC[N+]1(C)CCCCC1.O=S(=O)([N-]S(=O)(=O)C(F)(F)F)C(F)(F)F 0 (no)

----------
experimentalProtocol: activity coefficient (dimensionless); of the first substance listed, at infinite dilution; xn = mol fraction of the nth substance listed
conditionSummary: 348.15 K; 101 kPa; Liquid; Chromatography; x1 = 0
Response field label: string, one of Satisfied (activity coefficient strictly below 3) or Not satisfied.

                                   compound  grouplabel
0  CO [methanol] + CCCCC[N+]1(C)CCCCC1.O=S(=O)([N-]S(=O)(=O)C(F)(F)F)C(F)(F)F   Satisfied
1  CCO [ethanol] + CCCCCC[N+]1(C)CCCCC1.O=S(=O)([N-]S(=O)(=O)C(F)(F)F)C(F)(F)F   Satisfied

Regarding CCC(C)(C)C [2,2-dimethylbutane] + CCCCCC[N+]1(C)CCCCC1.O=S(=O)([N-]S(=O)(=O)C(F)(F)F)C(F)(F)F , kindly confirm whether its activity coefficient is beneath 3. Not satisfied

Input C#CCCCC [1-hexyne] + CCCCC[N+]1(C)CCCCC1.O=S(=O)([N-]S(=O)(=O)C(F)(F)F)C(F)(F)F Satisfied

Input CC1CCCCC1 [methylcyclohexane] + CCCCCC[N+]1(C)CCCCC1.O=S(=O)([N-]S(=O)(=O)C(F)(F)F)C(F)(F)F Not satisfied

Input CCCCCCC [heptane] + CCCCCC[N+]1(C)CCCCC1.O=S(=O)([N-]S(=O)(=O)C(F)(F)F)C(F)(F)F Not satisfied

Input C1CCCCCCC1 [cyclooctane] + CCCCCC[N+]1(C)CCCCC1.O=S(=O)([N-]S(=O)(=O)C(F)(F)F)C(F)(F)F Not satisfied

Input CCCCCO [pentan-1-ol] + CCCCC[N+]1(C)CCCCC1.O=S(=O)([N-]S(=O)(=O)C(F)(F)F)C(F)(F)F Satisfied

----------
experimentalProtocol: activity coefficient (dimensionless); of the first substance listed, at infinite dilution; xn = mol fraction of the nth substance listed
conditionSummary: 318.15 K; 101 kPa; Liquid; Chromatography; x1 = 0
Response field label: string, one of Satisfied (activity coefficient strictly below 4) or Not satisfied.

Regarding CCCCCCCCCC [decane] + CCCCCC[N+]1(C)CCCCC1.O=S(=O)([N-]S(=O)(=O)C(F)(F)F)C(F)(F)F , kindly confirm whether its activity coefficient is beneath 4. Not satisfied

----------
We begin with a simple list: items and their reported activity coefficient.
experimentalProtocol: activity coefficient (dimensionless); of the first substance listed, at infinite dilution; xn = mol fraction of the nth substance listed
conditionSummary: 358.15 K; 101 kPa; Liquid; Chromatography; x1 = 0
Enter the number alone.

Past entries and their recorded results:
In [3]: df
Out[3]:
                                   compound  reportedresult
0  C1CCCC1 [cyclopentane] + CCCCCC[N+]1(C)CCCCC1.O=S(=O)([N-]S(=O)(=O)C(F)(F)F)C(F)(F)F            3.12
1  CC1CCCCC1 [methylcyclohexane] + CCCCC[N+]1(C)CCCCC1.O=S(=O)([N-]S(=O)(=O)C(F)(F)F)C(F)(F)F            6.42
2  Cc1ccccc1 [toluene] + CCCCCC[N+]1(C)CCCCC1.O=S(=O)([N-]S(=O)(=O)C(F)(F)F)C(F)(F)F           0.969
3  CCC(C)(C)C [2,2-dimethylbutane] + CCCCC[N+]1(C)CCCCC1.O=S(=O)([N-]S(=O)(=O)C(F)(F)F)C(F)(F)F            6.86
4  CCCCCCCCCC [decane] + CCCCC[N+]1(C)CCCCC1.O=S(=O)([N-]S(=O)(=O)C(F)(F)F)C(F)(F)F            23.8
5  CCCO [propan-1-ol] + CCCCC[N+]1(C)CCCCC1.O=S(=O)([N-]S(=O)(=O)C(F)(F)F)C(F)(F)F            1.36
6  C=CCCCCCC [oct-1-ene] + CCCCC[N+]1(C)CCCCC1.O=S(=O)([N-]S(=O)(=O)C(F)(F)F)C(F)(F)F            8.47
7  CC1CCCCC1 [methylcyclohexane] + CCCCCC[N+]1(C)CCCCC1.O=S(=O)([N-]S(=O)(=O)C(F)(F)F)C(F)(F)F             5.2

Using the record for CCCOCCC [dipropyl ether] + CCCCCC[N+]1(C)CCCCC1.O=S(=O)([N-]S(=O)(=O)C(F)(F)F)C(F)(F)F , report its activity coefficient. 3.37

Input C#CCCC [1-pentyne] + CCCCCC[N+]1(C)CCCCC1.O=S(=O)([N-]S(=O)(=O)C(F)(F)F)C(F)(F)F 1.54

Input CC(C)=O [acetone] + CCCCC[N+]1(C)CCCCC1.O=S(=O)([N-]S(=O)(=O)C(F)(F)F)C(F)(F)F 0.466

Input CC(C)CC(C)(C)C [2,2,4-trimethylpentane] + CCCCC[N+]1(C)CCCCC1.O=S(=O)([N-]S(=O)(=O)C(F)(F)F)C(F)(F)F 10.6

Input C1CCOC1 [tetrahydrofuran] + CCCCC[N+]1(C)CCCCC1.O=S(=O)([N-]S(=O)(=O)C(F)(F)F)C(F)(F)F 0.682

Input C#CCCCCCC [1-octyne] + CCCCC[N+]1(C)CCCCC1.O=S(=O)([N-]S(=O)(=O)C(F)(F)F)C(F)(F)F 3.84

Input c1ccsc1 [thiophene] + CCCCC[N+]1(C)CCCCC1.O=S(=O)([N-]S(=O)(=O)C(F)(F)F)C(F)(F)F 0.722

Input CO [methanol] + CCCCCC[N+]1(C)CCCCC1.O=S(=O)([N-]S(=O)(=O)C(F)(F)F)C(F)(F)F 0.995

----------
experimentalProtocol: activity coefficient (dimensionless); of the first substance listed, at infinite dilution; xn = mol fraction of the nth substance listed
conditionSummary: 338.15 K; 101 kPa; Liquid; Chromatography; x1 = 0
measuredEndpoint: activity coefficient
Enter the number alone.

>>> df
                                   molecule  reportedresult
0  CC1CCCCC1 [methylcyclohexane] + CCCCC[N+]1(C)CCCCC1.O=S(=O)([N-]S(=O)(=O)C(F)(F)F)C(F)(F)F            6.87
1  c1ccccc1 [benzene] + CCCCC[N+]1(C)CCCCC1.O=S(=O)([N-]S(=O)(=O)C(F)(F)F)C(F)(F)F           0.721
2  C1CCCCCC1 [cycloheptane] + CCCCCC[N+]1(C)CCCCC1.O=S(=O)([N-]S(=O)(=O)C(F)(F)F)C(F)(F)F            5.52
3  Cc1ccccc1 [toluene] + CCCCC[N+]1(C)CCCCC1.O=S(=O)([N-]S(=O)(=O)C(F)(F)F)C(F)(F)F           0.975
4  C1CCCCCCC1 [cyclooctane] + CCCCCC[N+]1(C)CCCCC1.O=S(=O)([N-]S(=O)(=O)C(F)(F)F)C(F)(F)F            6.87
5  CC(C)CC(C)(C)C [2,2,4-trimethylpentane] + CCCCCC[N+]1(C)CCCCC1.O=S(=O)([N-]S(=O)(=O)C(F)(F)F)C(F)(F)F            8.95

Now for another entry.
Using the record for CCCCCCCCC [nonane] + CCCCC[N+]1(C)CCCCC1.O=S(=O)([N-]S(=O)(=O)C(F)(F)F)C(F)(F)F , report its activity coefficient. 19.9
